test system: T1, Biotin-huCGRPaSA (human, not fully specified; biotin (position not given))
T1 construct: exact construct ('aSA') not explained; also called Biotin CGRPaSA; full-length (1-37) CGRP
T1 peptide: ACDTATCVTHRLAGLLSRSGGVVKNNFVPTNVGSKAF
protocol notes: ELISA, purified antibody; relative to reference 47-RM-20190815
attribute measured: Relative activity (%)
Could you write the number and then its unit?

C97 (antibody, V domains shown, 2A2-HC + 1F5-LC1; chimeric, human constant regions) VH: EVQLQQSGPELVKPGASVKISCKASGYTFTDYNMHWVKQSHGKSLEWIGYVYPYNGGSAYNQKFKSKATLTVDTSSSIAYMDLHSLTSEDSAVYYCAREGLGGYWGQGTTLAVSS VL: DIVLTQSPASLAVSLGQRATISCKASQNIDFDGYAYMNWYQHKPGQPPRVLIYSVFNLESGIPARFSGSGSGTDFTLNIHPVEEEDAATYYCQQSHEVPYTFGGGTNLEIK :: 41.9%
C269 (antibody, V domains shown, 3E5-HC + 3E5-LC; chimeric, human constant regions) VH: EVQLQQSGPELVKPGASVKISCKTSGYTFTDYNMHWVKQSHGKSLEWIGYISPYNGGTAYNQKFKFKSTLTVDTSSSTAYMELRSLTSEDSAVYYCAREGLGGYWGQGTTLTVSS VL: DIVLTQSPASLAVSLGQRATISCKASQNIDYDGYTYLNWYQQKPGQPPKVLIYSIFNLESGIPARFSGSGSGTDFTLNIHPVEEEDAATYYCQQSNEVPYTFGGGTKLEIK :: 101%
C48 (antibody, V domains shown, 1B2-HC + 1A2-LC2; chimeric, human constant regions) VH: EVQLQQSGPEVVKPGASVRISCQASGYTFTDYNMHWVKQSHGKSLEWIGYIFPYNGVAVYNRKFRSKATLIIDKSSTTAYMELRSLTSEDSAVYYCAREGLGGYWGQGTTLTVSS VL: DIVLTQSPASLAVSLGQRATISCKASQNIDYDGYAYLNWYQQKPGQPPKVLIYSVFNLESGIPARFSGSGSGTDFTLNIHPVEEEDAATYYCQQSNEFPYTFGGGTKLEVK :: 60.4%
C276 (antibody, V domains shown, 3E5-HC + 3H10-LC2; chimeric, human constant regions) VH: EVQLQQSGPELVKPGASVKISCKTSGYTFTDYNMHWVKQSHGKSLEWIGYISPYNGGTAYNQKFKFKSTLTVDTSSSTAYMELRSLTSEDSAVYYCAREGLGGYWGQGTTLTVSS VL: DIVLTQSPDSLAVSLGQRATISCKASQNIDYGGYSYMNWYQQKPGQPPKVLIYSVFNLESGIPARFSGSGSGTDFTLTIHPVEEEDAATYYCQQSNEAPYTFGGGTKLEIR :: 84.1%

Inquiry: Please supply the value of reported Relative activity (%) for the item C350 (antibody, V domains shown, 3H10-HC + 1F5-LC1; chimeric, human constant regions) VH: EVQLQQSGPELVQPGASVKISCKASGYTFTDYNMHWVKQSHGESLEWIGYIYPYNGHTVYNQKFRNKATMTVDSSSSTAYMDLRSLTSEDSAVYYCAKEGLGGYWGQGTTLTVSS VL: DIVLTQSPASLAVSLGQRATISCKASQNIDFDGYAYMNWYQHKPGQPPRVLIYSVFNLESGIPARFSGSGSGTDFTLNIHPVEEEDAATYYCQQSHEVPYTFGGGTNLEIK
Reply text: 108%

Reference source: patent US20260125454A1
